Value source: patent US12102633B2

# Assay protocol: PK study in male C57 mouse for Examples 14 and 15
# Type: in vivo
# Assay setup: male, C57, mouse, plasma, po, 10 mg/kg, Example 15 dosed 10 mpk PO gavage
Recorded metric: Tmax

Specify reported Tmax for the compound shown: COc1cc(C(=O)N2CCC3(CC2)Cc2ccc(-c4cncc(C(=O)O)c4)cc2C(=O)O3)nc2c(OC)cccc12 [Example 15] 15 min

###

# Assay protocol: PK study in male C57 mouse for Examples 14 and 15
# Format: in vivo
# Assay setup: plasma, 1 mg/kg, Example 15 dosed 1 mpk IV
# Procedure: Pharmacokinetic studies were carried out with male C57 mouse. Compounds (Example 14 and Example 15) were each formulated in 5% DMSO+10% Solutol HS 15+85% Saline, and dosed at 1 mpk for IV injection (5 mL/kg) and 10 mpk for oral gavage (10 mUkg). Plasma samples at various time points were quantitated with LC-MS. Data reported were average of three mice. […]
Recorded metric: clearance

Give the reported clearance for this compound. "COc1cc(C(=O)N2CCC3(CC2)Cc2ccc(-c4cncc(C(=O)O)c4)cc2C(=O)O3)nc2c(OC)cccc12" 23.3 mL/min/kg
